Below: a set of entries, each annotated with reported logP.
Peptide text beside a SMILES is read from it. * marks the point of attachment. NHtBu = CC(C)(C)N*
measured_parameter: logP

[
  {
    "compound": "CN(CC(C)(C)C)N=O",
    "reported_measurement": 1.34
  },
  {
    "compound": "CC(=O)OCc1coc(Cc2ccccc2)c1",
    "reported_measurement": 3.24
  },
  {
    "compound": "CC(C)NNC(=O)COc1cccc(Cl)c1",
    "reported_measurement": 1.91
  },
  {
    "compound": "N#CC(C(=O)NC(CO)C(O)c1ccc([N+](=O)[O-])cc1)c1ccccc1 (stereo not drawn)",
    "reported_measurement": 1.47
  },
  {
    "compound": "O=C(O)c1ccccc1Nc1cccc(C(F)(F)F)c1",
    "reported_measurement": 5.25
  },
  {
    "compound": "Cc1cccc(C#N)n1",
    "reported_measurement": 0.84
  },
  {
    "compound": "CNC(=O)Oc1ccc(C#N)cc1",
    "reported_measurement": 0.95
  },
  {
    "compound": "O=C(Nc1ccccc1)c1cccnc1",
    "reported_measurement": 1.73
  },
  {
    "compound": "CNC(=O)Oc1ccc(SC)c(C)c1",
    "reported_measurement": 2.47
  },
  {
    "compound": "COc1ccccc1-c1nc(N)nc(N)n1",
    "reported_measurement": 0.58
  },
  {
    "compound": "CCCn1cnc2c(N)ncnc21",
    "reported_measurement": 0.74
  },
  {
    "compound": "Cc1cccc(OCC(=O)O)c1",
    "reported_measurement": 1.78
  },
  {
    "compound": "O=C(NCCN1CCC(O)(c2ccc(Cl)cc2)CC1)c1ccc(F)cc1",
    "reported_measurement": 2.85
  },
  {
    "compound": "NC(Cc1ccc([N+](=O)[O-])cc1)C(=O)O (stereo not drawn)",
    "reported_measurement": -1.25
  },
  {
    "compound": "COc1ccccc1NCC(N)=O",
    "reported_measurement": 0.78
  },
  {
    "compound": "CC(=O)N[C@@H](Cc1ccc(O)cc1)C(=O)N[C@@H](Cc1ccccc1)C(N)=O (Ac-Tyr-Phe-NH2)",
    "reported_measurement": 0.54
  },
  {
    "compound": "CCOC(=O)CCl",
    "reported_measurement": 0.94
  },
  {
    "compound": "OC(c1ccccc1)C1CCCCN1 (stereo not drawn)",
    "reported_measurement": 1.58
  },
  {
    "compound": "CC(=O)NC(C)C(=O)NC(Cc1c[nH]c2ccccc12)C(=O)NC(C)C(=O)NC(C)(C)C (stereo not drawn) (Ac-Ala-Trp-Ala-NHtBu; configuration not given here)",
    "reported_measurement": 1.26
  },
  {
    "compound": "CCCOc1cncc(C)n1",
    "reported_measurement": 2.29
  },
  {
    "compound": "FC(F)Oc1ccccc1",
    "reported_measurement": 2.44
  },
  {
    "compound": "COc1cc(Cl)c(Nc2ccccc2CC(=O)O)c(Cl)c1",
    "reported_measurement": 4.44
  },
  {
    "compound": "CC[C@H](C)[C@H](N)C(=O)O",
    "reported_measurement": -1.72
  },
  {
    "compound": "C#C[C@]1(O)CC[C@H]2[C@@H]3CCC4=CC(=O)CC[C@]4(C)[C@H]3CC[C@@]21C",
    "reported_measurement": 3.11
  },
  {
    "compound": "CSc1ccccc1N",
    "reported_measurement": 1.2
  },
  {
    "compound": "Nc1ccc(CO)cc1",
    "reported_measurement": -0.22
  },
  {
    "compound": "CN(C)C(=O)Nc1cccc(CCc2ccccc2)c1",
    "reported_measurement": 3.21
  },
  {
    "compound": "COC(N)=O",
    "reported_measurement": -0.66
  }
]
